# Tested on: Raji (B-cell lymphoma)
# EXPERIMENT_DESCRIPTION: human suspension tumor cell line assay, Raji
# Format: cell-based
# CONDITION_CONTEXT: 2 h exposure, cells counted after 5 days; read-out: cytotoxicity IC50, Raji
MEASURED_ATTRIBUTE: IC50 (nM)
Numeric answer only, unit nM assumed.

{"COMPOUND": "CCOC(=O)C1C(P(c2ccccc2)c2ccccc2)C2C(C)=C(C)C1P2c1ccccc1.[Cl][Au].[Cl][Au] (centres unmarked) [(Sp)-I]", "UNIT_OF_MEASUREMENT": "nM", "IC50": 500}

With those in mind, consider the next compound.
Kindly state the measured IC50 obtained for CCOC(=O)C1C(P(c2ccccc2)c2ccccc2)C2C(C)=C(C)C1P2c1ccccc1.[Cl][Au].[Cl][Au] (centres unmarked) [(Rp)-I] with Raji (B-cell lymphoma). 300
